# TESTED ON: integrin αvβ3 (UniProt P06756 31-1048; P05106 27-788)
# Sequence (P06756 31-1048, chain 1 of 2): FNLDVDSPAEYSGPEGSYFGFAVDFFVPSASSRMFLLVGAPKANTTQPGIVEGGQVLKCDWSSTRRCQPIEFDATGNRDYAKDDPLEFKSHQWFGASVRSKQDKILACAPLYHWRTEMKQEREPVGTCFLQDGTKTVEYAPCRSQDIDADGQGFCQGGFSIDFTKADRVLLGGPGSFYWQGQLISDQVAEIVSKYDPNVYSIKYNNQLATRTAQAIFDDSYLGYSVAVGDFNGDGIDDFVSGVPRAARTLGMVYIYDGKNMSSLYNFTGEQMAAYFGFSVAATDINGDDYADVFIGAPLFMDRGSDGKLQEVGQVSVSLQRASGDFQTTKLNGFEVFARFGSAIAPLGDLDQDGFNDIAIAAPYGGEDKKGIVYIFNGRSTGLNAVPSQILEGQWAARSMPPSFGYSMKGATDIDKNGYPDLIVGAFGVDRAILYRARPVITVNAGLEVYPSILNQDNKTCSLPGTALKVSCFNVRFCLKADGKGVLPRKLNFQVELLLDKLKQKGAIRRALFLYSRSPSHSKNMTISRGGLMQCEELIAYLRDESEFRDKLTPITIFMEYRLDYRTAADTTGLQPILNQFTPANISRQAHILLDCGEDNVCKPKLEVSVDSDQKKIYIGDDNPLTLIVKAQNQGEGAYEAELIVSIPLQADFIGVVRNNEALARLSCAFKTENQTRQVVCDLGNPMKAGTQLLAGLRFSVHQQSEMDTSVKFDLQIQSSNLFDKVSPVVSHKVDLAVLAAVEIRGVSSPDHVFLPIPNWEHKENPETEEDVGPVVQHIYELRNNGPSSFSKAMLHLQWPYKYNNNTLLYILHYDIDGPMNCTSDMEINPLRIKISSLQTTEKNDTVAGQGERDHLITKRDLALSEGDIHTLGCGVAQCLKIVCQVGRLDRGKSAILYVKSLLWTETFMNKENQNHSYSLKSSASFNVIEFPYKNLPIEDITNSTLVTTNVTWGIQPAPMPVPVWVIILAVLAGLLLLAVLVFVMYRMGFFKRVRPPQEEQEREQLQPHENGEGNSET
# Sequence (P05106 27-788, chain 2 of 2): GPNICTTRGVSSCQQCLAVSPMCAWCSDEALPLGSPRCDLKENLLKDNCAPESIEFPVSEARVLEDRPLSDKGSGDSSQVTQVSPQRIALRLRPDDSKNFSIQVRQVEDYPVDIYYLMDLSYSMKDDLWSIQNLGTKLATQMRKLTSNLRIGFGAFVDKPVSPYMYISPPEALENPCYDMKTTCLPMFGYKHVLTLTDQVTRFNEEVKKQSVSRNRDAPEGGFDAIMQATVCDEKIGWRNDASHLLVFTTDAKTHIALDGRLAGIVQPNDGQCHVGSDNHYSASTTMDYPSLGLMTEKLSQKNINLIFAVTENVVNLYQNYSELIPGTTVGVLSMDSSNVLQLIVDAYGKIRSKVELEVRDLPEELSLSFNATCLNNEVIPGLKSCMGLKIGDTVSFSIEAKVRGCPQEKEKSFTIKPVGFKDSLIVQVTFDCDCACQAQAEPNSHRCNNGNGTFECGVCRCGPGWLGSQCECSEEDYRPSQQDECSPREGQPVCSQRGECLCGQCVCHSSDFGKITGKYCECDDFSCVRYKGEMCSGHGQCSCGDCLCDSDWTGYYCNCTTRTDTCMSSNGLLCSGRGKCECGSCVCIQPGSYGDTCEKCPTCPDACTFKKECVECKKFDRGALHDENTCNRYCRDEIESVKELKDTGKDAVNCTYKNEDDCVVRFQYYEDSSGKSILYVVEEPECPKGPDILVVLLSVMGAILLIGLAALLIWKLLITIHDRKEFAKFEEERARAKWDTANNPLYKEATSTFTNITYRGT
# PROTOCOL NOTES: cell-based or functional assay
READOUT: IC50, cell adhesion assay (nM)

BINDER	READING
FNIII 10 C-X7-C (SEQ ID NO: 8, VCPRGDWNECSK) (designed binder, Engineered intradomain disulfide bond Cys1491-Cys1499; exact N-terminus uncertain) HHHHHHVSDVPRDLEVVAATPTSLLISWDAPAVTVRYYRITYGETGGNSPVQEFTVPGSKSTATISGLKPGVDYTITVYAVCPRGDWNECSKPISINYRT	418
Control FNIII 10 mutant (SEQ ID NO: 50, VTPRGDWNEGSK) (designed binder, exact N-terminus uncertain; also called FNIII 10 variant) HHHHHHVSDVPRDLEVVAATPTSLLISWDAPAVTVRYYRITYGETGGNSPVQEFTVPGSKSTATISGLKPGVDYTITVYAVTPRGDWNEGSKPISINYRT	908
FNIII 10 C-X7-C (SEQ ID NO: 10, VCARGDNPDCSK) (designed binder) HHHHHHVSDVPRDLEVVAATPTSLLISWDAPAVTVRYYRITYGETGGNSPVQEFTVPGSKSTATISGLKPGVDYTITVYAVCARGDNPDCSKPISINYRT	432
FNIII 10 C-X7-C (SEQ ID NO: 6, VCPRGDMPDCSK) (designed binder) HHHHHHVSDVPRDLEVVAATPTSLLISWDAPAVTVRYYRITYGETGGNSPVQEFTVPGSKSTATISGLKPGVDYTITVYAVCPRGDMPDCSKPISINYRT	93
FNIII 10 variant (SEQ ID NO: 48, VTPRGDMPDSSK) (designed binder, also called FNIII 10 (PRGDMPD) protein; FNIII 10 PRGDMPD variant) HHHHHHVSDVPRDLEVVAATPTSLLISWDAPAVTVRYYRITYGETGGNSPVQEFTVPGSKSTATISGLKPGVDYTITVYAVTPRGDMPDSSKPISINYRT	645
